// provenance: patent US12139488B2

# System: pERK in HCT-116 cells (KRAS G13D)
# method_notes: Phospho-ERK inhibition (AlphaLISA SureFire Ultra p-ERK 1/2), HCT116
# Assay type: cell-based, human
# condition_summary: HCT116 cells; Ymin in brackets
What HCT116 pERK Ymin % was measured for each of the following?
Give bare numbers, in %.

NC(=O)c1cccc(-c2ccc3ncnc(Nc4c(F)ccc(NS(=O)(=O)c5ccccc5Cl)c4F)c3n2)c1 [Example 80] : 11
Nc1cccc2c1ncn2-c1ccc2ncnc(Nc3c(F)ccc(NS(=O)(=O)c4cccc(Cl)c4Cl)c3F)c2n1 [Example 99] : −5.4
CN(C)c1nnc(-c2nn(-c3ccc4ncnc(Nc5c(F)ccc(NS(=O)(=O)c6cccc(Cl)c6Cl)c5F)c4n3)c3ccccc23)o1 [Example 209] : −6
CNCc1cccc2c1ncn2-c1ccc2ncnc(Nc3c(F)ccc(NS(=O)(=O)c4ccccc4Cl)c3F)c2n1 [Ex 215] : −9
O=S(=O)(Nc1ccc(F)c(Nc2ncnc3ccc(-n4nc(-c5ncc[nH]5)c5ccccc54)nc23)c1F)c1ccccc1Cl [Example 213] : −8
COc1ccc(S(=O)(=O)Nc2ccc(F)c(Nc3ncnc4ccc(-c5cncs5)nc34)c2F)c(C)c1 [Ex 59] : −0.7

The measured HCT116 pERK Ymin % associated with COc1ccc(S(=O)(=O)Nc2ccc(F)c(Nc3ncnc4ccc(-c5ccncc5)nc34)c2F)c(C)c1 [Ex 63] reads −2.1

---

What pIC50 was measured for each of the following?
# Test system: pERK in HCT-116 cells (KRAS G13D)
# method_notes: Phospho-ERK inhibition (AlphaLISA SureFire Ultra p-ERK 1/2), HCT116
# Assay type: cell-based, human
# condition_summary: HCT116 cells; class symbol
pIC50: −log10 of the molar value.

Worked examples follow.
Cc1cc([N+](=O)[O-])ccc1S(=O)(=O)Nc1ccc(F)c(Nc2ncnc3ccc(-n4cnc5c(N)cccc54)nc23)c1F [Ex 368] : 5.00 to 6.00
CNCC(C)(C)S(=O)(=O)c1cn(-c2ccc3ncnc(Nc4c(F)ccc(NS(=O)(=O)c5cccc(Cl)c5Cl)c4F)c3n2)c2ccccc12 [Example 461] : > 6.30
COCCN(CCOC)c1cccc2c1ncn2-c1ccc2ncnc(Nc3c(F)ccc(NS(=O)(=O)c4cccc(F)c4C)c3F)c2n1 [Example 376] : 6.00 to 6.30
O=S(=O)(Nc1ccc(F)c(Nc2ncnc3ccc(-n4cc(S(=O)(=O)C5CCNCC5)c5ccccc54)nc23)c1F)c1cccc(Cl)c1Cl [Example 465] : 6.00 to 6.30
CC(C)(O)CCNS(=O)(=O)c1cn(-c2ccc3ncnc(Nc4c(F)ccc(NS(=O)(=O)c5cccc(Cl)c5Cl)c4F)c3n2)c2ccccc12 [Ex 453] : > 6.30

Next, consider the following compound.
The measured pIC50 associated with COCCCN(CCCOC)c1cccc2c1ncn2-c1ccc2ncnc(Nc3c(F)ccc(NS(=O)(=O)c4cccc(F)c4C)c3F)c2n1 [Example 384] reads 5.00 to 6.00

---

# Tested on: RKO cells (BRAF V600E)
# method_notes: Proliferation inhibition (CellTiter-Glo), RKO
# Format: cell-based, human
# condition_summary: Homo sapiens, 72 h, 3 days, read-out: RKO Prolif. EC50
readout_type: EC50

The measured EC50 associated with Cc1ccc2c(Nc3cccc(Cl)c3F)nccc2c1NC(=O)c1csc2c(N)ncnc12 [Belvarafenib, reference compound] reads < 30 nM

---

What HCT116 pERK Ymin % was measured for each of the following?
# Test system: pERK in HCT-116 cells (KRAS G13D)
# method_notes: Phospho-ERK inhibition (AlphaLISA SureFire Ultra p-ERK 1/2), HCT116
# Type: cell-based, human
# condition_summary: HCT116 cells; Ymin in brackets
Answers are plain numbers, in %.

Worked examples follow.
O=S(=O)(Nc1ccc(F)c(Nc2ncnc3ccc(-n4cc(-c5ncc[nH]5)c5ccccc54)nc23)c1F)c1cccc(Cl)c1Cl : −11
Cc1c(Cl)cccc1S(=O)(=O)Nc1ccc(F)c(Nc2ncnc3ccc(-n4cnc5c(O)cccc54)nc23)c1F : −18
Cc1ncn(-c2ccc3ncnc(Nc4c(F)ccc(NS(=O)(=O)c5ccccc5Cl)c4F)c3n2)c1C : −2
COc1cncc(-c2ccc3ncnc(Nc4c(F)ccc(NS(=O)(=O)c5ccc(OC)cc5C)c4F)c3n2)c1 : −9

Next, consider the following molecule.
The measured HCT116 pERK Ymin % associated with CC(=O)c1cn(-c2ccc3ncnc(Nc4c(F)ccc(NS(=O)(=O)c5ccccc5Cl)c4F)c3n2)c2ccccc12 reads −12

---

# subject_of_test: BRAF (Homo sapiens (Human), UniProt P15056)
# Sequence (P15056 whole entry): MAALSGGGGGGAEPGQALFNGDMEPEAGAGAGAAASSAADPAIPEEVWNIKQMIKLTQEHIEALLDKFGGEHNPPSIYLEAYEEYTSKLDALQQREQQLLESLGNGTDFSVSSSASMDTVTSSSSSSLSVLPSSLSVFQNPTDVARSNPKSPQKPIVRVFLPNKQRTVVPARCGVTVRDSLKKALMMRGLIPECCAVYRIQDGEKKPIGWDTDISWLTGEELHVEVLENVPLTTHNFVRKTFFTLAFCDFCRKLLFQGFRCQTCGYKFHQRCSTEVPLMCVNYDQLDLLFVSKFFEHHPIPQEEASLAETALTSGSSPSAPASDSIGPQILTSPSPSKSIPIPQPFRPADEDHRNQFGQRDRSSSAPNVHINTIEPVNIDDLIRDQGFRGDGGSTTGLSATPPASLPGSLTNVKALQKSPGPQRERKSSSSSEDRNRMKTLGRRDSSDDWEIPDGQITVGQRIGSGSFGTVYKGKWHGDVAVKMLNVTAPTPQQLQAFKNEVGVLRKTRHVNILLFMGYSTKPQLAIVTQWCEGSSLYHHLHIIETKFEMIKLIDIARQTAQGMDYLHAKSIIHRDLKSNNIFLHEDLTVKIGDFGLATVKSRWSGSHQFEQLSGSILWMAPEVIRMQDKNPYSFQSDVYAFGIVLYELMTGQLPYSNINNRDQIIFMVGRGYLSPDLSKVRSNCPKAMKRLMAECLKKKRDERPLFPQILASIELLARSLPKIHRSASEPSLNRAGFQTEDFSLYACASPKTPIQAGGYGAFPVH
# method_notes: BRAF kinase activity assay (ADP-Glo)
# Type: biochemical
# condition_summary: read-out: Kinase IC50 (nM) BRAF
readout_type: IC50

Worked examples follow.
COc1ccc(S(=O)(=O)Nc2ccc(F)c(Nc3ncnc4ccc(-c5cncs5)nc34)c2F)c(C)c1 : > 10 nM
CN(C)Cc1cccc2c1ncn2-c1ccc2ncnc(Nc3c(F)ccc(NS(=O)(=O)c4ccccc4Cl)c3F)c2n1 : 1 to 10 nM
CN(C)C(=O)c1cn(-c2ccc3ncnc(Nc4c(F)ccc(NS(=O)(=O)c5ccccc5Cl)c4F)c3n2)c2ccccc12 : < 1 nM
O=S(=O)(Nc1ccc(F)c(Nc2ncnc3ccc(-n4nc(-c5ncc[nH]5)c5ccccc54)nc23)c1F)c1cccc(Cl)c1Cl : 1 to 10 nM
Cc1scc(S(=O)(=O)Nc2ccc(F)c(Nc3ncnc4ccc(-n5cnc6ccccc65)nc34)c2F)c1C : 1 to 10 nM

Would you mind giving IC50 for every molecule in the list below?
1. Nc1cccc2c1ncn2-c1ccc2ncnc(Nc3c(F)ccc(NS(=O)(=O)c4ccccc4Cl)c3F)c2n1
2. Nc1cccc2c1nnn2-c1ccc2ncnc(Nc3c(F)ccc(NS(=O)(=O)c4cccc(Cl)c4Cl)c3F)c2n1
3. CNC(=O)c1cn(-c2ccc3ncnc(Nc4c(F)ccc(NS(=O)(=O)c5ccccc5Cl)c4F)c3n2)c2ccccc12

// result
1 to 10 nM
< 1 nM
1 to 10 nM

Would you mind giving IC50 for every molecule in the list below?
1. Nc1ncnc2c1ncn2-c1ccc2ncnc(Nc3c(F)ccc(NS(=O)(=O)c4ccccc4Cl)c3F)c2n1
2. O=S(=O)(Nc1ccc(F)c(Nc2ncnc3ccc(-n4cnc5c(CN6CCCC6)cccc54)nc23)c1F)c1ccccc1Cl
3. O=S(=O)(Nc1ccc(F)c(Nc2ncnc3ccc(-n4cnc5c(CN6CCC(O)CC6)cccc54)nc23)c1F)c1ccccc1Cl
4. Cc1c(Cl)cccc1S(=O)(=O)Nc1ccc(F)c(Nc2ncnc3ccc(-n4nnc5c(O)cccc54)nc23)c1F

// result
1. 1 to 10 nM
2. 1 to 10 nM
3. < 1 nM
4. 1 to 10 nM

---

# Test system: SW480 cells (KRAS G12D)
# method_notes: Proliferation inhibition (CellTiter-Glo), SW480
# Assay type: cell-based, human
# condition_summary: Homo sapiens, 72 h; SW480, 3 days; read-out: SW480 Prolif. EC50
readout_type: EC50

Assay SW480 cells (KRAS G12D), sample Cc1ccc2c(Nc3cccc(Cl)c3F)nccc2c1NC(=O)c1csc2c(N)ncnc12 [Belvarafenib, reference compound] , EC50 read: 300 to 3000 nM

---

# Test system: NCIH2087 cells (BRAF L597V; KRAS Q61K)
# method_notes: Proliferation inhibition (CellTiter-Glo), NCIH2087
# Type: cell-based, human
# condition_summary: NCIH2087, 3 days; read-out: NCIH2087 Prolif. EC50
What EC50 was measured for each of the following?

Nc1cccc2c1ncn2-c1ccc2ncnc(Nc3c(F)ccc(NS(=O)(=O)c4cccc(Cl)c4Cl)c3F)c2n1 : 300 to 3000 nM

The measured EC50 associated with CC1(O)CCN(c2cccc3c2ncn3-c2ccc3ncnc(Nc4c(F)ccc(NS(=O)(=O)c5cccc(Cl)c5Cl)c4F)c3n2)CC1 reads < 30 nM

---

What pIC50 was measured for each of the following?
# Test system: pERK in HCT-116 cells (KRAS G13D)
# method_notes: Phospho-ERK inhibition (AlphaLISA SureFire Ultra p-ERK 1/2), HCT116
# Assay type: cell-based, human
# condition_summary: HCT116 cells, 1 h treatment
pIC50: −log10 of the molar value.

Cc1c(Cl)csc1S(=O)(=O)Nc1ccc(F)c(Nc2ncnc3ccc(-n4cnc5ccccc54)nc23)c1F : > 6.30
O=S(=O)(Nc1ccc(F)c(Nc2ncnc3ccc(-n4cnc5ccccc54)nc23)c1F)c1ccccc1Cl : 6.00 to 6.30
O=S(=O)(Nc1ccc(F)c(Nc2ncnc3ccc(-n4cnc5ccccc54)nc23)c1F)c1ccc(C(F)(F)F)cc1Cl : 5.00 to 6.00
COc1ccc(S(=O)(=O)Nc2ccc(F)c(Nc3ncnc4ccc(-n5cnc6ccccc65)nc34)c2F)cc1 : 5.00 to 6.00
CCc1ccc(S(=O)(=O)Nc2ccc(F)c(Nc3ncnc4ccc(-n5cnc6ccccc65)nc34)c2F)cc1 : 4.52 to 5.00

Next, consider the following molecule.
The measured pIC50 associated with Cc1scc(S(=O)(=O)Nc2ccc(F)c(Nc3ncnc4ccc(-n5cnc6ccccc65)nc34)c2F)c1C reads 5.00 to 6.00
